Where these numbers come from: ChEMBL document CHEMBL1201862

Test system: SNB-75
Assay: NCI tumour cell line growth inhibition, 48 h
The source made the active and inactive calls. Cut-off read from the data, not from the text of the source: active = GI50 up to about 1.1 µM and inactive = higher.
Entry note: the call must match one of active, inactive

O=C1C2=C(c3ccccc31)C(c1ccc(F)cc1)N1C(=O)CCSC1=N2 (centres undefined) = inactive
O=c1c2ccccc2c2c3c1cccc3c1cccc3c(=O)c4ccccc4c2c31 = inactive
N#Cc1c(-c2ccccc2)c(/N=N/c2ccc(Cl)cc2)c(=O)n2c1[nH]c1ccccc12 = inactive
CCC(=O)CCC1=Nc2nnc(CCCCc3nnc4n3C(=O)C(CCC(=O)CC)=N4)n2C1=O = inactive
CC1=NNC(=O)C1C1CC(c2c[nH]c3ccccc23)=NN(C(N)=O)C1=O (centres undefined) = inactive
CC1(C)CC(=O)C2=C(C1)NC1=C(C2)C(=O)CC(C)(C)C1 = inactive

Hi, sorry to bother you, what did the test record for Cc1nc(NC(C)(CO)CO)nc(N/N=C/c2ccc(Cl)cc2)c1C(=O)Nc1ccc(Cl)cc1 ?
inactive

Let us now turn to O=Cc1cn(S(=O)(=O)c2ccccc2)c2ccccc12
inactive

Also CCOc1ccc(/N=N/C2C(=O)N(C(=O)CC(=O)Nc3ccc(C)cc3)N=C2C)cc1 (centres undefined) , if possible.
inactive

Now give it for O=C1/C(=C/c2ccc(Cl)cc2)CSc2ccccc21 too.
inactive

Please give the result for NC(CSC1(c2ccc(Cl)cc2)c2ccccc2-c2ccccc21)C(=O)O (centres undefined) too.
inactive
